Property: RLU/well; scope: individual compounds
Test system: HeLa
Test: Transfection activity of compound was tested in human cervical adenocarcinoma (HeLa) cells (Level of luciferase gene expression is expressed as mean of relative light units (RLU) per well)
Type: functional
Please state the value as a number alone, without comment.

Entry C=C1CC[C@H](OC(=O)NCC[N+](C)(C)C)C/C1=C/C=C1\CCC[C@]2(C)[C@@H]([C@H](C)CCCC(C)C)CC[C@@H]12.[I-] has what RLU/well?
18000

Follow-up entry: C=C1CC[C@H](OC(=O)NCC[N+](C)(C)C)C/C1=C/C=C1\CCC[C@]2(C)[C@@H]([C@H](C)/C=C/[C@H](C)C(C)C)CC[C@@H]12.[I-]
38000

Follow-up entry: C=C1CC[C@H](OC(=O)NCCN(C)C)C/C1=C/C=C1\CCC[C@]2(C)[C@@H]([C@H](C)/C=C/[C@H](C)C(C)C)CC[C@@H]12.Cl
2.6e+06

Follow-up entry: C=C1CC[C@H](OC(=O)NCCN(C)C)C/C1=C/C=C1\CCC[C@]2(C)[C@@H]([C@H](C)CCCC(C)C)CC[C@@H]12.Cl
290000

Follow-up entry: C=C1CC[C@H](OC(=O)NCCN(CCN)CCN)C/C1=C/C=C1\CCC[C@]2(C)[C@@H]([C@H](C)/C=C/[C@H](C)C(C)C)CC[C@@H]12.Cl
540000

Follow-up entry: C=C1CC[C@H](OC(=O)NCCCCN)C/C1=C/C=C1\CCC[C@]2(C)[C@@H]([C@H](C)CCCC(C)C)CC[C@@H]12.Cl
1.7e+06

Follow-up entry: C=C1CC[C@H](OC(=O)NCCN(CCN)CCN)C/C1=C/C=C1\CCC[C@]2(C)[C@@H]([C@H](C)CCCC(C)C)CC[C@@H]12.Cl
1.4e+06

Follow-up entry: C=C1CC[C@H](OC(=O)NCCCCN)C/C1=C/C=C1\CCC[C@]2(C)[C@@H]([C@H](C)/C=C/[C@H](C)C(C)C)CC[C@@H]12.Cl
930000
